Just for reference, paper PMC11040352 is where these values come from.

- EXPERIMENTAL PROTOCOL: Ex vivo biodistribution in mice with MOLP8 tumor xenografts
- Set-up: species or system NSG mice
- STUDY CONDITIONS: both sexes, NSG, mouse, tumor/muscle, 80 uCi, total radioactivity, 60 min p.i.; MOLP8 xenograft mice; read-out: Tumor/muscle ratio
MEASUREMENT KIND: tissue to tissue ratio at 1 h

[in] Bench note: what tissue to tissue ratio at 1 h did CC[C@H](C)[C@@H]1NC(=O)[C@@H]2CCCN2C(=O)[C@H](Cc2ccccc2)NC(=O)[C@H](CC(=O)O)NC(=O)[C@H](C)NC(=O)[C@@H]2CSCc3cc(cc(c3)CSC[C@H](NC(=O)[C@H](C)NC(=O)CCOCCOCCOCCNC(=O)CN3CCN(CC(=O)O)CCN(CC(=O)O)CC3)C(=O)N[C@@H](C(C)C)C(=O)N3CCC[C@H]3C(=O)N2)CSC[C@@H](C(N)=O)NC(=O)[C@H](Cc2ccc(O)cc2)NC(=O)[C@H](Cc2c[nH]c3ccccc23)NC1=O [[^68Ga]Ga‐AJ206, metal not drawn] show?
[out] > 25
